Observed Ki values for Bcl-2 (Homo sapiens, UniProt P10415) are listed in what follows.

Solved cases below.
compound	Ki
C[C@@H](O)[C@H]1[C@@H](CO)ON(Cc2cccc(C#CCN(C)Cc3ccccc3)c2)[C@H]1C(=O)NCCCN(C)c1ccccc1 [Compound 51]	800 to 6000 nM
C[C@@H]1[C@@H](NC(=O)[C@@H]2[C@H]([C@H](C)O)[C@H](CO)ON2Cc2cccc(C#CCNS(=O)(=O)c3ccccc3)c2)C[C@H]2C[C@@H]1C2(C)C [Compound 76]	800 to 6000 nM
CC(C)CC(CN(C)C)N(Cc1cccc(CN2OC(CO)C(C(C)O)C2C(=O)NC2CC3CC(C2C)C3(C)C)c1)Cc1c(F)cccc1Cl (stereo not drawn) [Compound 307]	< 800 nM
C[C@@H](O)[C@@H]1C(C(=O)NCCCN(C)c2ccc(Cl)cc2)N(Cc2cccc(C#CCNC(=O)c3ccccc3)c2)O[C@@H]1CO (stereo partly drawn) [Compound 62]	6000 to 50000 nM
C[C@@H]1C(NC(=O)[C@@H]2[C@H]([C@H](C)O)[C@H](CO)ON2Cc2cccc(-c3ccc(NCCCN(C)C)cc3)c2)C[C@@H]2CC1C2(C)C (stereo partly drawn) [Compound 272]	< 800 nM

Task item: Fetch value of Ki on Bcl-2 (Homo sapiens, UniProt P10415) for CCN(CC)C(=O)c1ccc(-c2cccc(CN3O[C@@H](CO)[C@@H]([C@H](C)O)[C@H]3C(=O)N[C@H]3C[C@H]4C[C@@H]([C@@H]3C)C4(C)C)c2)cc1 [Compound 108] .
Sequence (P10415 whole entry): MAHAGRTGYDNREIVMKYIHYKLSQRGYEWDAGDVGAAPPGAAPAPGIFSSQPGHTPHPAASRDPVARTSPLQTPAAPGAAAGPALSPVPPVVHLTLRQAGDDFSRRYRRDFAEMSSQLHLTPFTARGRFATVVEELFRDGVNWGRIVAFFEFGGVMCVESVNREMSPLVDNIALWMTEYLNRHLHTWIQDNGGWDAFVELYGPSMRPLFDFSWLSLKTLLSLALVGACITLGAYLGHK
Reply: < 800 nM
